- target_or_system: Focal adhesion kinase 1 (Homo sapiens)
- assay_details: small-molecule microarray binders of FAK, primary screen, biochemical, 635/667 nm fluorescence, BSA, DTT (AID 1130);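 also: composite of spot emission at 667 nm and signal to noise over triplicate slides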
- condition: PTK2 binding, 635 nm fluorescence, higher = more signal
observation_type: composite z-score

Field: example entries. Status: answers known.
compound	composite z-score
CC(C)(C)OC(=O)CC[C@]12N=C(c3ccc(OCCCO)cc3)O[C@H]1c1ccccc1N(Cc1ccccc1)C2=O	0.56
O=C1c2ccccc2[C@](Cc2ccccc2I)(C(=O)NC2CC2)[C@H](c2ccc(CO)cc2)N1Cc1ccccc1C(F)(F)F	-0.226
[N-]=[N+]=Nc1ccccc1C[C@@]1(C(=O)O)N=C(c2ccc(OCCCO)cc2)O[C@@H]1c1ccccc1N=[N+]=[N-]	0.968
CCOC(=O)C[C@H]1[C@H](OC(=O)c2cc3ccccc3oc2=O)[C@@H](NC(=O)c2ccc3ccccc3c2)c2cc(OCCCO)ccc2N1C(=O)Cc1ccc(OC)cc1	0.307
CCOC(=O)C[C@H]1[C@H](OC(=O)c2ccccc2-c2ccccc2)[C@@H](NC(=O)c2ccccc2)c2cc(OCCCO)ccc2N1C(=O)c1ccccc1	0.59
O=C1C2C=CC(C(O)c3ccco3)N(Nc3ccccc3)C2C(=O)N1c1ccccc1 (stereo not drawn)	-0.0201

Quick one: composite z-score of C[C@@H]1ON(c2ccc(I)cc2)[C@H](c2ccc(OC(=O)OC(C)(C)C)cc2)[C@H]1C(=O)N1C(=O)OC[C@H]1Cc1ccccc1 ?
-0.0457

Entry COc1ccc([Si](C)(C)[C@H]2[C@H](CCO)O[C@@]3(C(=O)N(Cc4ccc(N5C(=O)c6ccccc6Oc6ccccc65)cc4)c4ccccc43)[C@@H]2C)cc1 please
-0.266

Also, COc1ccc(C#Cc2ccc3c(c2)[C@]2(C(=O)N3)[C@H](C(=O)N3CCCCCCC3)[C@H]3C(=O)O[C@H](c4ccccc4)[C@H](c4ccccc4)N3[C@@H]2c2ccc(O)cc2)cc1 please.
0.127

Field entry: CC1CC/C=C\[C@H]2OC34C=CCN(CCN5CCOCC5)C(=O)[C@H]3N(C(C)CO)C(=O)[C@@H]4C2C(=O)O1 (stereo partly drawn)
-0.421

CC(CO)N1C(=O)[C@@H]2[C@H]3C(=O)OCC=C[C@H]3OC23C=CCN(c2ccc(Cl)cc2)C(=O)[C@@H]13 (stereo partly drawn) ?
0.0657

Follow-up entry: CCOC(=O)C1=CC[C@@H](c2ccccc2)N(S(=O)(=O)c2ccc(C)cc2)[C@H]1c1cccc(OC)c1
-0.0106

Entry to check: O=c1cccc(-c2ccc(F)cc2)o1
0.111

Same lookup for CC(C)=CCCC(C)=CC(O)C1C=CC2C(=O)N(c3ccccc3)C(=O)C2N1Nc1ccccc1F (stereo not drawn) , please.
0.789

====

- assay_details: A549 lung cancer cell viability effects, profiling panel, resazurin fluorescence, 24 h, PK04 Diversity Set (AID 1171); also: test concentration not given here
- condition: higher = more signal, called active from +8 up or from −8 down
molecules and their reported z-score
The answer should be written as a number, with no unit following it.

Example results:
molecule	z-score
CC(=O)N1CC(C(O)C2C=CC3C(=O)NC(=O)C3N2Nc2ccc(Cl)cc2Cl)c2ccccc21 (stereo not given)	-0.554
[N-]=[N+]=NCc1ccccc1[C@@H]1OC(c2ccc(OCCCO)cc2)=N[C@]1(Cc1ccccc1N=[N+]=[N-])C(=O)NCCN1CCOCC1	0.162
COCCOC(=O)N1C(=O)[C@@]2(c3cc(C#Cc4ccc(OC)cc4)ccc31)[C@H](c1ccc(OCCO)cc1)N1[C@H](c3ccccc3)[C@H](c3ccccc3)OC(=O)[C@H]1[C@@H]2C(=O)Nc1nc2ccccc2s1	-0.285
COCCOC(=O)N1C(=O)[C@@]2(c3ccccc31)[C@H](c1ccc(OCCO)cc1)N1[C@H](c3ccccc3)[C@H](c3ccccc3)OC(=O)[C@H]1[C@@H]2C(=O)N1CCCCCCC1	0.0556
COCCOC(=O)N1C(=O)[C@@]2(c3cc(C#CC4=CCCCC4)ccc31)[C@H](C(=O)N1CCCCCCC1)[C@H]1C(=O)O[C@H](c3ccccc3)[C@H](c3ccccc3)N1[C@@H]2c1ccc(OCCO)cc1	-0.223

Query molecule follows.
Item CCOC(=O)C=Cc1cc(F)ccc1O has what recorded z-score?
0.0142

====

- assay_details: modulators of S6 phosphorylation in cells, primary screen, cell-based, A549, cytoblot, luminescence, serum-stimulated (AID 1158);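 also: serum-stimulated A549 lung adenocarcinoma cells; signal is phosphorylated S6 detected by cytoblot immunostaining with HRP secondary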
- condition: A549 phospho-S6 cytoblot, 5 h, higher = more signal
observation_type: z-score

Field: example entries. Status: answers known.
compound	z-score
C=C(CCCC)/C(=C/C[C@H](OC(C)=O)c1ccc(OCCO)cc1)c1cc(C(=O)OC)ccc1OC	0.376
CC(C)C[C@@H]1NC(=O)CNC(=O)[C@@]23C(=O)N[C@@H](Cc4ccccc4)C2[C@H](C)[C@@]2(C)O[C@H]2C3/C=C/C/C=C\CNC1=O (stereo not given in full)	-0.0425
O=c1cccc(-c2ccc(F)cc2)o1	-0.387
O=C1NC(=O)C2C1C=CC(C(O)c1ccccn1)N2Nc1ccc(Cl)cc1Cl (stereo not given)	-0.881
COc1ccc([Si](C)(C)[C@H]2[C@H](CC(=O)N3CCC[C@H]3CO)O[C@@]3(C(=O)N(Cc4ccc(N5CCC5=O)cc4)c4ccccc43)[C@@H]2C)cc1	0.783
CCOC(=O)C1=C[C@@H](c2ccccc2)N(S(=O)(=O)c2ccc(C)cc2)[C@H]1c1ccccc1	-0.8

Field request: z-score | item: COCCCNC(=O)[C@@]1(Sc2ccc(C)cc2)CC(=O)N(Cc2ccccc2Cl)[C@@H]1c1ccc(CO)cc1I
-0.487

Let us now turn to CO[C@H]1O[C@H](CO)[C@@H](OC(=O)Nc2ccc(C#N)cc2)[C@@H]2OC(=O)[C@H](Cc3cccc(Br)c3)C/C=C/C[C@@H](Cc3cccc(Br)c3)C(=O)O[C@@H]12
-0.257

Then this compound: O=C1C2C=CC(C(O)c3cccc(O)c3)N(Nc3ccccc3)C2C(=O)N1c1ccccc1 (stereo not given)
0.109

// repeat for CCOC(=O)C1=C[C@@H](C(C)(C)C)N(S(=O)(=O)c2ccc(C)cc2)[C@H]1c1cccc(Cl)c1 and report
-0.98

====

Recorded z-score, one value per entry.
- assay_details: E. coli acrAB mutant growth effects, primary screen, E. coli filamentation inducers, strain DRC39, OD650, 48 h (AID 1179);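 also: screen aims at cell division blockers that make cells filament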
- condition: E. coli DRC39 delta-acrAB growth, higher = more signal, called active from +8 up or from −8 down
Could you respond with only the numeric value?

compound	result_value
COC(=O)[C@@]1(Cc2ccc(OC)cc2)[C@H]2c3cc(C(=O)N4CCCC4)n(Cc4cc(C)n(C)n4)c3C[C@H]2CN1C(=O)c1ccccc1	0.342

Continue with the next compound.
Look up z-score: COCCOC(=O)N1C(=O)[C@@]2(c3cc(C#CC4(O)CCCCCC4)ccc31)[C@H](C(=O)N1CCN(c3ncccn3)CC1)[C@H]1C(=O)O[C@H](c3ccccc3)[C@H](c3ccccc3)N1[C@@H]2c1ccccc1OCCO
-0.473

====

- assay_details: splicing luciferase reporter signal modulators, primary screen, spliceosome inhibition project, cell-based, HEK293, splice +/- reporter (AID 1101);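 also: HEK293 cells carrying a splicing-competent luciferase reporter gene; test concentration not given here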
- condition: luminescence, 24 h, higher = more signal, called active from +8 up or from −8 down
observation_type: z-score
Respond with the number and no other words.

Below, 6 compounds whose answers are already recorded.
> print(dat)
                                   compound  observation.type  result.value
1  CCOC(=O)C[C@H]1[C@H](OC(=O)c2ccc(-c3ccccc3)cc2)[C@@H](NC(=O)Cc2ccc(OC)cc2)c2cc(OCCCO)ccc2N1C(=O)Cc1ccc(OC)cc1           z-score       -0.0344
2  CC1(C)C(=O)C(c2ccccc2)=C2CN3C(=O)N(CCc4ccccc4)C(=O)C3(Cc3ccc(C(F)(F)F)cc3)C=C21 (configuration not stated)           z-score         0.701
3  COCCCNC(=O)[C@@]1(c2ccc([N+](=O)[O-])cc2)CC(=O)N(C(C)C)[C@@H]1c1ccc(CO)cc1           z-score        0.0532
4  CCOC(=O)C[C@H]1[C@H](OC(=O)c2ccccc2-c2ccccc2)[C@@H](NC(=O)c2ccccc2)c2cc(OCCCO)ccc2N1C(=O)c1ccccc1           z-score        0.0178
5  O=C1N[C@@H](Cc2ccccc2)C(=O)N2[C@@H]1C[C@@H](C(=O)O)[C@H]2c1ccc(O)cc1           z-score        -0.485
6  [N-]=[N+]=NCc1ccccc1[C@H]1OC(c2ccc(OCCCO)cc2)=N[C@@]1(CCS(=O)(=O)c1ccccc1)C(=O)NCc1ccccc1           z-score         0.118

For COc1ccc([Si](C)(C)[C@@H]2[C@@H](CCn3cc([C@H](O)c4ccccc4)nn3)O[C@]3(C(=O)N(c4ccccc4)c4ccccc43)[C@H]2C)cc1 , what is its reported z-score?
-1.18

Another compound to look at: COc1ccc(C(O)C2C=CC3C(=O)N(c4ccccc4)C(=O)C3N2Nc2ccccc2)cc1 (configuration not stated)
1.68

Okay, and C=CC[C@H](OC(=O)Nc1ccc(SC)cc1)c1ccc(OCCO)cc1 ?
-1.69

Lookup COc1cc(CO)cc(I)c1O[C@H]1C=C(C(=O)NCCO)C[C@@H](NCC2CCCCC2)[C@@H]1O
-0.47

Lookup CCN(CC)c1ccc(N2CC=CC34O[C@@H]5C=CCCOC(=O)C5[C@H]3C(=O)N(CCO)[C@@H]4C2=O)cc1 (some centres not stated)
-0.688

What do you get for CC(=O)NCCCC[C@@H]1NC(=O)[C@@H]2C[C@H](C(=O)NCCCCCCN)[C@H](c3cccc(OCCO)c3)N2C1=O ?
0.248
